B1: ATL3 (parent)
chain: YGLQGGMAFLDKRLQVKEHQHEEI

# Variants of: B1
# ASSAY PROTOCOL: protein stability index of a GFP-peptide fusion (GPS, HEK-293T) (PSI 1-6); higher = more stable;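 further: lentivirally expressed fusions sorted by FACS into six bins by GFP to DsRed ratio, PSI derived from sequencing read proportions per bin multiplied by bin number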
# ASSAY SETUP: c terminus: a fixed tail appended
The recorded protein stability index of each item maps onto one of these classes: low range = under 2, mid range = from 2 up to 3, high range = 3 and over

For orientation, consider the following solved cases.
POLYMER SEQUENCE	LABEL VALUE
YGLQGGMAFLDKRLQVKEHSHEEI [Q20S]	mid range
PGLQGGMAFLDKRLQVKEHQHEEI [Y1P]	high range
YGFQGGMAFLDKRLQVKEHQHEEI [L3F]	mid range
YGLQGGMAFLDKRLQVKEHQHEVI [E23V]	mid range

Class? Entry: YGLQGGMAFLDKRTQVKEHQHEEI [L14T] high range
